test system: Human cytomegalovirus (HCMV); assay: Anti-HCMV plaque reduction assay in MRC5 cells; type: cell-based; details: Human betaherpesvirus 5, read-out: IC50, anti-HCMV activity (50% inhibitory concentration)
Measured pIC50, listed per entry for reference.
Would you please state pIC50, meaning minus log10 of the concentration in mol/L, as a bare number?

The recorded pIC50 for OC[C@@H]1C[C@@H](O)[C@H](n2c(Br)nc3cc(Cl)c(Cl)cc32)C1 (relative stereo) is 6.00

The recorded pIC50 for OC[C@@H]1C[C@H](n2c(Br)nc3cc(Cl)c(Cl)cc32)[C@@H](O)[C@H]1O (relative stereo) is 5.72
